- Tested on: E. coli J62-TEM-3
- EXPERIMENT: MIC determination, broth microdilution (CLSI)
- Type: cell-based
- APPLIED_CONDITIONS: strain 18; broth microdilution
EXPERIMENTAL_ENDPOINT: MIC strain 18 (E. coli J62-TEM-3) (µg/mL)

[
  {
    "MOLECULE": "CC1(C)[C@H](NC(=O)/C(=N\\OCC(Oc2ccc(C(=N)N)cc2)C(=O)O)c2csc(N)n2)C(=O)N1OS(=O)(=O)O (single isomer, unassigned) [Example 87B]",
    "EXPERIMENTAL_VALUE": 32
  },
  {
    "MOLECULE": "CC1(C)[C@H](NC(=O)/C(=N\\OC(CO)COc2ccc(C(=N)N)cc2)c2csc(N)n2)C(=O)N1OS(=O)(=O)O (mixture of isomers) [Example 45A]",
    "EXPERIMENTAL_VALUE": 1
  },
  {
    "MOLECULE": "CC1(C)[C@H](NC(=O)/C(=N\\O[C@@H](COc2ccc(C(=N)NC3CC3N)cc2)C(=O)O)c2csc(N)n2)C(=O)N1OS(=O)(=O)O (single isomer, unassigned) [Example 100B]",
    "EXPERIMENTAL_VALUE": 16
  },
  {
    "MOLECULE": "CC1(C)[C@H](NC(=O)/C(=N\\OC(CCO)COc2ccc(C(=N)N)cc2)c2csc(N)n2)C(=O)N1OS(=O)(=O)O (single isomer, unassigned) [Example 81A]",
    "EXPERIMENTAL_VALUE": 32
  },
  {
    "MOLECULE": "CC1(C)[C@H](NC(=O)/C(=N\\OC(CCO)COc2ccc(C(=N)N)cc2)c2csc(N)n2)C(=O)N1OS(=O)(=O)O (single isomer, unassigned) [Example 81B]",
    "EXPERIMENTAL_VALUE": 4
  },
  {
    "MOLECULE": "CC1(C)[C@H](NC(=O)/C(=N\\OC(COc2ccc(C(=N)NCCN)cc2)C(=O)O)c2csc(N)n2)C(=O)N1OS(=O)(=O)O (mixture of isomers) [Example 44B]",
    "EXPERIMENTAL_VALUE": 4
  },
  {
    "MOLECULE": "CC1(C)[C@H](NC(=O)/C(=N\\OC(CO)COc2ccc(C(=N)N)cc2)c2csc(N)n2)C(=O)N1OS(=O)(=O)O (mixture of isomers) [Example 45B]",
    "EXPERIMENTAL_VALUE": 16
  }
]
